This section presents compounds with their documented log10 of IC50 values.
system: Trichophyton mentagrophytes; test: Antimicrobial activity against Trichophyton mentagrophytes by broth microdilution method; format: functional, organism-based
Short version: log10 scale, IC50, µg/mL.

Please review the entries below; each comes with its answer.
input: Can you share its log10 of IC50? I mean this compound: OC(Cn1cncn1)(Cn1ccnn1)c1ccc(F)cc1F (stereo not given)
output: 0.81

input: What value of log10 of IC50 has been recorded for this entry: CCCCCCCCn1cc(CC(O)(Cn2cncn2)c2ccc(F)cc2F)nn1 (stereo not given)
output: -0.60

input: Request the reported log10 of IC50 associated with C[Si](C)(C)c1cn(CC(O)(Cn2cncn2)c2ccc(F)cc2F)nn1 (stereo not given)
output: 0.93

input: Would you mind telling me what log10 of IC50 value was observed for OC(Cc1c[nH]nn1)(Cn1cncn1)c1ccc(F)cc1F (stereo not given) ?
output: 1.67

input: // log10 of IC50 lookup, key: CCCCCCc1cn(CC(O)(Cn2cncn2)c2ccc(F)cc2F)nn1 (stereo not given)
output: 0.39

input: Dear colleague, I am looking for the recorded log10 of IC50 of the following compound: CC(=O)N1CCN(c2ccc(OCC3COC(Cn4ccnc4)(c4ccc(Cl)cc4Cl)O3)cc2)CC1 (stereo not given)
output: 0.33

---
input: // lookup log10 of IC50 for C[C@@H]1[C@H](O)[C@@H](C)/C=C/C=C/C=C/C=C/C=C/C=C/C=C/[C@H](O[C@@H]2O[C@H](C)[C@@H](O)[C@H](N)[C@@H]2O)C[C@@H]2O[C@](O)(C[C@@H](O)C[C@@H](O)[C@H](O)CC[C@@H](O)C[C@@H](O)CC(=O)O[C@H]1C)C[C@H](O)[C@H]2C(=O)O
output: -1.70

input: I am curious: what log10 of IC50 value has been reported for OC(Cn1cncn1)(Cn1cncn1)c1ccc(F)cc1F ?
output: -0.22

input: I would be grateful if you could share the reported log10 of IC50 for C[C@H](CCC(=O)OCc1cn(CC(O)(Cn2cncn2)c2ccc(F)cc2F)nn1)[C@H]1CC[C@H]2[C@@H]3CC[C@@H]4C[C@H](O)CC[C@]4(C)[C@H]3C[C@H](O)[C@]12C (stereo not given in full) .
output: 1.67

input: Would you mind telling me what log10 of IC50 value was observed for C[C@H](CCC(=O)OCc1cn(CC(O)(Cn2cncn2)c2ccc(F)cc2F)nn1)[C@H]1CC[C@H]2[C@@H]3[C@H](O)C[C@@H]4C[C@H](O)CC[C@]4(C)[C@H]3C[C@H](O)[C@]12C (stereo not given in full) ?
output: 0.95

====

tested on: A-431; test: Cytotoxicity against human A431 cells at 1 mg/ml
MEASURED_ENDPOINT: Activity

Illustrative cases are given below, each with its answer.
input: Which Activity is listed for C[C@@H]1[C@H](O)[C@@H](C)/C=C/C=C/C=C/C=C/C=C/C=C/C=C/[C@H](O[C@@H]2O[C@H](C)[C@@H](O)[C@H](N)[C@@H]2O)C[C@@H]2O[C@](O)(C[C@@H](O)C[C@@H](O)[C@H](O)CC[C@@H](O)C[C@@H](O)CC(=O)O[C@H]1C)C[C@H](O)[C@H]2C(=O)O ?
output: Toxic

input: Look at this compound and give its reported Activity. C[C@H](CCC(=O)OCc1cn(CC(O)(Cn2cncn2)c2ccc(F)cc2F)nn1)[C@H]1CC[C@H]2[C@@H]3[C@H](O)C[C@@H]4C[C@H](O)CC[C@]4(C)[C@H]3C[C@H](O)[C@]12C (stereo not given in full)
output: Toxic

input: Entry CCCCCCc1cn(CC(O)(Cn2cncn2)c2ccc(F)cc2F)nn1 (stereo not given) : reported Activity = ?
output: Toxic

input: What measured Activity goes with CC(=O)N1CCN(c2ccc(OCC3COC(Cn4ccnc4)(c4ccc(Cl)cc4Cl)O3)cc2)CC1 (stereo not given) ?
output: Toxic

Alright, here's another compound for you.
input: State the recorded Activity for this entry: C[C@H](CCC(=O)OCc1cn(CC(O)(Cn2cncn2)c2ccc(F)cc2F)nn1)[C@H]1CC[C@H]2[C@@H]3CC[C@@H]4C[C@H](O)CC[C@]4(C)[C@H]3C[C@H](O)[C@]12C (stereo not given in full)
output: Toxic
